Attribution: paper PMC8788626

assay.summary: Plasma pharmacokinetics of dacomitinib and metabolite PF-05199265
Type: in vivo, patients
stated.conditions: human, plasma, oral, 45 mg
measured.attribute: Tmax (h)
The reply should be a number in h, with the unit left off.

The compound `COc1cc2ncnc(Nc3ccc(F)c(Cl)c3)c2cc1NC(=O)/C=C/CN1CCCCC1` showed Tmax equal to 6.1

###

assay.summary: Plasma pharmacokinetics of dacomitinib and metabolite PF-05199265
Assay type: in vivo, patients
stated.conditions: human, plasma, oral, 45 mg, AUC0–10, median, Cycle 0, Day 4, following 6 doses (q12 h) of 45 mg dacomitinib
measured.attribute: AUC(0-t) (µg·h/mL)
The reply should be a number in µg·h/mL, with the unit left off.

The compound COc1cc2ncnc(Nc3ccc(F)c(Cl)c3)c2cc1NC(=O)/C=C/CN1CCCCC1 [dacomitinib] showed AUC(0-t) equal to 0.728

###

assay.summary: Plasma pharmacokinetics of dacomitinib and metabolite PF-05199265
Format: in vivo, patients
stated.conditions: human, plasma, oral, 45 mg, Cmax, mean (CV%), Cycle 0, Day 4, following 6 doses (q12 h) of 45 mg dacomitinib
measured.attribute: Cmax (ng/mL)
The reply should be a number in ng/mL, with the unit left off.

The compound `COc1cc2ncnc(Nc3ccc(F)c(Cl)c3)c2cc1NC(=O)/C=C/CN1CCCCC1` showed Cmax equal to 96.8
